Reference source: ChEMBL document CHEMBL1153484

Target: Voltage-gated inwardly rectifying potassium channel KCNH2 (Homo sapiens, UniProt Q12809)
Sequence (Q12809 whole entry): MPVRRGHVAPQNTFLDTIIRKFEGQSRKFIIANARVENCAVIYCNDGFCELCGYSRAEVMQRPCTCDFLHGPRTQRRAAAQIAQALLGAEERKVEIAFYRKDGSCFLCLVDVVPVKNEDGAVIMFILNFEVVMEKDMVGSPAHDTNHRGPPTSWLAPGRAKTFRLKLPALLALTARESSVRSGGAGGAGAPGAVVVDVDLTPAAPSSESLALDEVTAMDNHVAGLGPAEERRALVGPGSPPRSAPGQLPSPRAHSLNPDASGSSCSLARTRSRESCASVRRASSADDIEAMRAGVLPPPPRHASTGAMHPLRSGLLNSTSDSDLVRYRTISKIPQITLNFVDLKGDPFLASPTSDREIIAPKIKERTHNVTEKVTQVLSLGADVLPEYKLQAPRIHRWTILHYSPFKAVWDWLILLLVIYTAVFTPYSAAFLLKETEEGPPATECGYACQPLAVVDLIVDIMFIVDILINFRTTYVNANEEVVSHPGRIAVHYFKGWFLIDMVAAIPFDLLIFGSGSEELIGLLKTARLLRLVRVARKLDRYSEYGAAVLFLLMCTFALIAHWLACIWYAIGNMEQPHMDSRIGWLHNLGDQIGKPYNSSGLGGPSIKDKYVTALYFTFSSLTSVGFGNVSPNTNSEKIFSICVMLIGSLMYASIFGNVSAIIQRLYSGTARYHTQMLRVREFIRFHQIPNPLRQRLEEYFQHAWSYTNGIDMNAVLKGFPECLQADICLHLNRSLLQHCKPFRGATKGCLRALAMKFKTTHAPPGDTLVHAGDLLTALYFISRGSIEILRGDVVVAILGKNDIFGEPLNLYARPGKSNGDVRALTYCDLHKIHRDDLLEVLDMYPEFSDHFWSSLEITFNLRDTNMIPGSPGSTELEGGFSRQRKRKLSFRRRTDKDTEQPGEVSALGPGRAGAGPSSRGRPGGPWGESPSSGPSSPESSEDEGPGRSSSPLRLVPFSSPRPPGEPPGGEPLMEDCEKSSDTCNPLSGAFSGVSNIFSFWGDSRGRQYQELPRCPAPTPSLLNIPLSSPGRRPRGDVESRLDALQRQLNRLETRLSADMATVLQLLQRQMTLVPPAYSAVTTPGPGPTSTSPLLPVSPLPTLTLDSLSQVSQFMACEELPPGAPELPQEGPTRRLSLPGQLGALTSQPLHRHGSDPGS
Experimental Readout: IC50

Field: example entries. Status: answers known.
>>> obs_value("CSc1ccccc1C(=O)N(C1CCCCC1)[C@H]1CCNC1")
"2.27 µM"
>>> obs_value("CNCc1cnc(C)cc1Oc1ccccc1Oc1ccccc1")
"11.2 µM"
>>> obs_value("CSc1ccccc1C(=O)N(C1CCCC1)[C@H]1CCNC1")
"> 18.7 µM"
>>> obs_value("O=C(c1ccccc1C(F)(F)F)N(CC1CCC1)[C@H]1CCNC1")
"> 20 µM"
>>> obs_value("CC(C)c1ccccc1C(=O)N(CC1CC1)[C@H]1CCNC1")
"> 17.6 µM"

// below: IC50 requested for another compound
Input line: # lookup: Voltage-gated inwardly rectifying potassium channel KCNH2 (Homo sapiens, UniProt Q12809) IC50, key = CCCN(C(=O)c1ccccc1SC)[C@H]1CCNC1
Output line: > 20 µM
